Give measured relative viability for each item. Keep answers brief.
# System: HCC-78
# METHOD: relative viability (nuclei count vs DMSO), 5 days (fraction); higher = more cells survive
# CONDITION: first compound 0.3162 µM
Could you respond with only the numeric value?

Looking up NC(=O)Nc1cc(-c2cccc(F)c2)sc1C(=O)N[C@H]1CCCNC1 [AZD7762] + CS(=O)(=O)N1CCN(Cc2cc3nc(-c4cccc5[nH]ncc45)nc(N4CCOCC4)c3s2)CC1 [Pictilisib] (partner 1 µM) , I found its relative viability recorded as 0.213

For record NC(=O)Nc1cc(-c2cccc(F)c2)sc1C(=O)N[C@H]1CCCNC1 [AZD7762] + CC1(C)CCC(c2ccc(Cl)cc2)=C(CN2CCN(c3ccc(C(=O)NS(=O)(=O)c4ccc(N[C@H](CCN5CCOCC5)CSc5ccccc5)c(S(=O)(=O)C(F)(F)F)c4)cc3)CC2)C1 [Navitoclax] (partner 0.5 µM) the listed relative viability is 0.714

###

# Tested on: NCI-H2009
# METHOD: relative viability (nuclei count vs DMSO), 5 days (fraction); higher = more cells survive
# CONDITION: first compound 0.8 µM
Rule: relative viability below 0.5 gives criterion met, anything at or above gives criterion not met.

Regarding C=C1C(=O)O[C@@H](CCCCCCCC)[C@@H]1C(=O)O [C-75] + O=C(c1cc(Cc2n[nH]c(=O)c3ccccc23)ccc1F)N1CCN(C(=O)C2CC2)CC1 [Olaparib] (partner 8 µM) , kindly confirm whether its relative viability is beneath 0.5.
criterion not met

Hello, is relative viability of the following molecule strictly smaller than 0.5? C=C1C(=O)O[C@@H](CCCCCCCC)[C@@H]1C(=O)O [C-75] + C[C@]1(O)C[C@@H](c2nc(-c3ccc4ccc(-c5ccccc5)nc4c3)c3c(N)nccn32)C1 [Linsitinib] (partner 1 µM)
criterion not met

Here's an entry: Oc1nc(-c2ccc(C(F)(F)F)cc2)nc2c1CSCC2 [XAV939] + Cc1nc(Nc2ncc(C(=O)Nc3c(C)cccc3Cl)s2)cc(N2CCN(CCO)CC2)n1 [Dasatinib] (partner 0.075 µM) . Is its relative viability below 0.5?
criterion met

Answer whether the molecule C=C1C(=O)O[C@@H](CCCCCCCC)[C@@H]1C(=O)O [C-75] + O=C(CCCCCCC(=O)Nc1ccccc1)NO [Vorinostat] (partner 1 µM) has relative viability strictly less than 0.5
criterion met

# check: relative viability < 0.5 for C=C1C(=O)O[C@@H](CCCCCCCC)[C@@H]1C(=O)O [C-75] + N=C(N)NC(=N)NCCc1ccccc1 [Phenformin] (partner 250 µM)
criterion met

In the record for C=C1C(=O)O[C@@H](CCCCCCCC)[C@@H]1C(=O)O [C-75] + CS(=O)(=O)CCNCc1ccc(-c2ccc3ncnc(Nc4ccc(OCc5cccc(F)c5)c(Cl)c4)c3c2)o1 [Lapatinib] (partner 2 µM) , is relative viability less than 0.5?
criterion not met

###

# Tested on: 201T
# METHOD: relative viability (nuclei count vs DMSO), 5 days (fraction); higher = more cells survive
# CONDITION: first compound 0.01581 µM
The label t is reserved for relative viability strictly under 1; f covers values equal to or above it.

Record CC1(C)CCC(c2ccc(Cl)cc2)=C(CN2CCN(c3ccc(C(=O)NS(=O)(=O)c4ccc(N[C@H](CCN5CCOCC5)CSc5ccccc5)c(S(=O)(=O)C(F)(F)F)c4)cc3)CC2)C1 [Navitoclax] + CC(C)C[C@H](NC(=O)[C@H](Cc1ccccc1)NC(=O)c1cnccn1)B(O)O [Bortezomib] (partner 0.002 µM) : is its relative viability strictly below 1?
f

Lab note: confirm whether the reported relative viability for this molecule is below 1, equality not counting. molecule: CC1(C)CCC(c2ccc(Cl)cc2)=C(CN2CCN(c3ccc(C(=O)NS(=O)(=O)c4ccc(N[C@H](CCN5CCOCC5)CSc5ccccc5)c(S(=O)(=O)C(F)(F)F)c4)cc3)CC2)C1 [Navitoclax] + O=C(c1cc(Cc2n[nH]c(=O)c3ccccc23)ccc1F)N1CCN(C(=O)C2CC2)CC1 [Olaparib] (partner 8 µM)
t

Please let me know if CC1(C)CCC(c2ccc(Cl)cc2)=C(CN2CCN(c3ccc(C(=O)NS(=O)(=O)c4ccc(N[C@H](CCN5CCOCC5)CSc5ccccc5)c(S(=O)(=O)C(F)(F)F)c4)cc3)CC2)C1 [Navitoclax] + Cc1cc(Nc2cc(N3CCN(C)CC3)nc(Sc3ccc(NC(=O)C4CC4)cc3)n2)n[nH]1 [Tozasertib] (partner 0.1 µM) shows relative viability below 1.
f

Does this molecule meet the criterion relative viability < 1? CC1(C)CCC(c2ccc(Cl)cc2)=C(CN2CCN(c3ccc(C(=O)NS(=O)(=O)c4ccc(N[C@H](CCN5CCOCC5)CSc5ccccc5)c(S(=O)(=O)C(F)(F)F)c4)cc3)CC2)C1 [Navitoclax] + Nc1ncn([C@H]2C[C@H](O)[C@@H](CO)O2)c(=O)n1 [Decitabine] (partner 2 µM)
t

Input CC1(C)CCC(c2ccc(Cl)cc2)=C(CN2CCN(c3ccc(C(=O)NS(=O)(=O)c4ccc(N[C@H](CCN5CCOCC5)CSc5ccccc5)c(S(=O)(=O)C(F)(F)F)c4)cc3)CC2)C1 [Navitoclax] + NC(=O)Nc1cc(-c2cccc(F)c2)sc1C(=O)N[C@H]1CCCNC1 [AZD7762] (partner 0.2 µM) ; condition: relative viability strictly below 1. Does it hold?
t

Dear reviewer, please state whether CC1(C)CCC(c2ccc(Cl)cc2)=C(CN2CCN(c3ccc(C(=O)NS(=O)(=O)c4ccc(N[C@H](CCN5CCOCC5)CSc5ccccc5)c(S(=O)(=O)C(F)(F)F)c4)cc3)CC2)C1 [Navitoclax] + C[C@]1(O)C[C@@H](c2nc(-c3ccc4ccc(-c5ccccc5)nc4c3)c3c(N)nccn32)C1 [Linsitinib] (partner 1 µM) has relative viability strictly beneath 1.
f
